# System Tested: DLG1_1, Q12959
# Method: holdup assay
# Set-up: key: below the threshold = too weak to quantify, mostly under pKd 3.1 to 4
# Test Parameters: plain residues with an end cap or a label only (N-terminal biotin on a linker: ado-ado)
Endpoint Name: pKd
Please reply with the value in numeric form only.

Exam item: Query pKd for ARESQKVSHV [FAM110B, Q8TC76]
Marked response: 3.95

Exam item: Query pKd for QLSFNTDTLC [ABCA2, Q9BZC7]
Marked response: 3.87

Exam item: Query pKd for APIAGFSSFV [SDK2, Q58EX2]
Marked response: 4.21

Exam item: Query pKd for NTLNRKTTPV [CACNG8, Q8WXS5]
Marked response: 4.32

Exam item: Query pKd for PSHPRLQTHV [KIRREL2, Q6UWL6]
Marked response: 4.24

Exam item: Query pKd for DGVNEKVSCV [HTR2A, P28223]
Marked response: 3.84

Exam item: Query pKd for TGLWKHETTV [ADGRA3, Q8IWK6]
Marked response: 5.12

Exam item: Query pKd for GIKKITSTAL [RPS6KA3, P51812]
Marked response: 4.05

From: paper PMC9482650
